# subject of test: KRas G12C (Homo sapiens, UniProt P01116, G12C)
# Sequence (P01116 1-188 isoform P01116-2 G12C): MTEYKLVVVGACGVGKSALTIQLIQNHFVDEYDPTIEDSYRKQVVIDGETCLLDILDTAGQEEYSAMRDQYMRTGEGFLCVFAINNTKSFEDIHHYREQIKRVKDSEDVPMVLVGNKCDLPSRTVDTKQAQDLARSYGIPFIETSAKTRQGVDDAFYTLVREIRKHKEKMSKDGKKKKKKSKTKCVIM
# experiment description: Cellular inhibition of KRas G12C measured by Phospho-ERK in NCI-H358 cells
# Type: cell-based
# condition label: pERK(Thr202/Tyr204) normalized with GAPDH, NCI-H358 cells, 3 hours; read-out: IC50
reported metric: IC50

Use these answered entries as a reference point.
| compound | IC50 |
| --- | --- |
| C=CC(=O)N1CCN(c2nc(OC[C@@H]3CCCN3C)nc3c2CCN(c2cccc4ccccc24)C3)[C@@H](C#N)C1 | > 1000 nM |
| C=CC(=O)N1CCN(c2nc(OC[C@H]3CCC(=O)N3)nc3c2CCN(c2cc(O)cc4ccccc24)C3)CC1 | > 1000 nM |
| C=CC(=O)N1CCN(c2nc(OCCN(C)C)nc3c2CCN(c2cc(O)cc4ccccc24)C3)CC1 | > 1000 nM |

Parameters: items (list). Returns: IC50 for each item.
1. C=CC(=O)N1CCN(c2nc(OC[C@@H]3CCCN3C)nc3c2CCN(c2cccc(Cl)c2Cl)C3)C[C@@H]1CC#N
2. C=CC(=O)N1CCN(c2ncnc3c2CCN(c2cc(O)cc4ccccc24)C3)CC1
3. C=CC(=O)N1CCN(c2nc(OCCCN3CC4CC4C3)nc3c2CCN(c2cc(O)cc4ccccc24)C3)CC1 (stereo not drawn)
4. C=CC(=O)N1CCN(c2nc(OC[C@]3(C)CCCN3C)nc3c2CCN(c2cccc4ccccc24)C3)CC1CC#N (stereo partly drawn)
5. C=CC(=O)N1CCN(c2nc(OCC(O)CO)nc3c2CCN(c2cc(O)cc4ccccc24)C3)CC1 (stereo not drawn)
6. CN1CCC[C@H]1COc1nc2c(c(N3CCN(C(=O)/C=C/CO)[C@@H](CC#N)C3)n1)CCN(c1cccc3cccc(Cl)c13)C2

["0.1 to 1000 nM", "> 1000 nM", "0.1 to 1000 nM", "0.1 to 1000 nM", "> 1000 nM", "0.1 to 1000 nM"]
